experimental.system: CYP142A1 C110S (Mycobacterium tuberculosis, UniProt P9WPL5, C110S)
assay.context: pH 7.4
Structures can show the parent of a compound that is named as a salt.
experimental.readout: Kd (µM)
State just the number; it will be interpreted in µM.

Exercise: Output measured Kd for this item: CC(C)CCC[C@@H](C)[C@H]1CC[C@H]2[C@@H]3CC=C4C[C@@H](OS(=O)(=O)O)CC[C@]4(C)[C@H]3CC[C@]12C [Cholesteryl sulfate]
Key: 37

###

experimental.system: CYP142A1 C123S (Mycobacterium tuberculosis, UniProt P9WPL5, C123S)
assay.context: pH 7.4
Where a name gives a salt, the structure may show the parent alone.
experimental.readout: pKd
Field pKd (float): negative decimal logarithm of the concentration in molar.

Exercise: Report value: pKd, system: CYP142A1 C123S (Mycobacterium tuberculosis, UniProt P9WPL5, C123S), compound: CC(C)CCC[C@@H](C)[C@H]1CC[C@H]2[C@@H]3CC=C4C[C@@H](OS(=O)(=O)O)CC[C@]4(C)[C@H]3CC[C@]12C [Cholesteryl sulfate]
Key: 4.46

###

experimental.system: CYP142A1 C281S (Mycobacterium tuberculosis, UniProt P9WPL5, C281S)
assay.context: pH 7.4
Structures can show the parent of a compound that is named as a salt.
experimental.readout: Kd (µM)
Answer with a number only, understood to be in µM.

Exercise: Identify measured Kd associated with CC(C)CCC[C@@H](C)[C@H]1CC[C@H]2[C@@H]3CC=C4C[C@@H](OS(=O)(=O)O)CC[C@]4(C)[C@H]3CC[C@]12C [Cholesteryl sulfate]
Key: 37

###

experimental.system: CYP142A1 C296S (Mycobacterium tuberculosis, UniProt P9WPL5, C296S)
assay.context: pH 7.4
Structures can show the parent of a compound that is named as a salt.
experimental.readout: Kd (µM)
Dear colleague, please return just the value in µM, with no unit written.

Exercise: Write down measured Kd (CYP142A1 C296S (Mycobacterium tuberculosis, UniProt P9WPL5, C296S)) for this molecule. CC(C)CCC[C@@H](C)[C@H]1CC[C@H]2[C@@H]3CC=C4C[C@@H](OS(=O)(=O)O)CC[C@]4(C)[C@H]3CC[C@]12C [Cholesteryl sulfate]
Key: 25
